experiment: T. gondii ME49Luc in HeLa cells, luciferase assay, 72 h, no IFN-y (AID 1259421); settings: concentration not given here
The whole screen tested about 6,400 compounds, of which about 610 (9.5%) were called active. No stated cut-off is given here; in the data, active means activity change below about -70%; inconclusive means no clear call, values can overlap the other calls; inactive means above that. What follows is part of a selection rich in actives, with near analogues and random picks from the rest.
Write down the outcome that applies. Available outcomes: active, inactive

| molecule | group |
| --- | --- |
| O=C1OC(=O)C2C3CCC(O3)C12 (stereo unspecified) | active |
| COc1ccccc1N1CCN(CC(C(=O)NC(C)(C)C)c2ccccc2)CC1 (stereo unspecified) | inactive |
| C#Cc1cccc(Nc2ncnc3cc(OCCOC)c(OCCO)cc23)c1 | inactive |

Exercise: Which outcome was assigned to C#Cc1cccc(Nc2ncnc3cc(OC)c(OCCCCCCC(=O)NO)cc23)c1 in this test?
Solution: active

Exercise: Can you handle Cc1c(Cn2ccnc2)c2ccccc2n1CCC(=O)O next?
Solution: inactive

Exercise: Please answer likewise for CC(C)(C)/[N+]([O-])=C/c1ccc(S(=O)(=O)O)cc1S(=O)(=O)O
Solution: inactive
